Tested on: KM12
protocol_summary: NCI tumour cell line growth inhibition, 48 h
Activity calls are given as the source filed them. No stated cut-off is given here; in the data, active = GI50 up to about 1.1 µM and inactive = higher.
Classes used: 1 for active, 0 for inactive

Cc1[nH]c(-c2ccccc2)c(O)c1C(=O)OC1CC(C)CCC1C(C)C (stereo unspecified) | 0
Cc1cc(C)c(C(=O)O)c(N)c1O | 0
COc1ccc(NC(=O)C(=O)Cc2nc3ccc(C(=O)c4ccccc4)cc3nc2O)c([N+](=O)[O-])c1 | 0
Cc1cc(=O)n2nc(SCc3ccccc3)sc2n1 | 0
CC1=C(C(=O)NNC(=O)c2ccccc2O)CC(C(=O)NNC(=O)c2ccccc2O)=C(C)N1 | 1
CCSc1nc2sc(C)c(C)c2c(=O)n1-c1ccc(C(=O)O)cc1 | 0
O=C(NCCc1ccccc1)c1cc(/C=C/c2cc(O)ccc2O)ccc1O | 0
Nc1nc(Cl)cc(NCCCCO)n1 | 0
CCOC(=O)c1cc(Br)c(-c2onc(C)c2Br)[nH]1 | 0
CC#CC#C/C=C1/C=CC2(CCCCO2)O1 (stereo unspecified) | 0
Cc1nc2c(ccc3ncccc32)[nH]1 | 0
